Source of measurements: patent US20090280138A1

Target: T1, MHC class I molecule B*0702 (biotin (bound to streptavidin-coated plate))
T1 construct: also called B7; HLA-B7
Experiment: iTopia iScore

| binder | iScore |
| --- | --- |
| SSSPTSSAS [5T4 9-mer peptide 16 SSSPTSSAS] | 0 |
| AALLAGRAL [5T4 9-mer peptide 101 AALLAGRAL] | 0.238 |
| LSPFAFSGS [5T4 9-mer peptide 79 LSPFAFSGS] | 0 |
| NQLAVLPAG [5T4 9-mer peptide 51 NQLAVLPAG] | 0 |
| AVSAQPPLP [5T4 9-mer peptide 26 AVSAQPPLP] | 0 |
| LPAYVRNLF [5T4 9-mer peptide 45 LPAYVRNLF] | 0.389 |
| AARTVKCVN [5T4 9-mer peptide 36 AARTVKCVN] | 0.059 |
| RQLDLSHNP [5T4 9-mer peptide 73 RQLDLSHNP] | 0 |
